# measurement.description: recombinant UMI read abundance after kanamycin selection (control-corrected) (log10(CPM+1)); higher = more efficient recombination; extreme values may be limits of the assay; sequences stand for … in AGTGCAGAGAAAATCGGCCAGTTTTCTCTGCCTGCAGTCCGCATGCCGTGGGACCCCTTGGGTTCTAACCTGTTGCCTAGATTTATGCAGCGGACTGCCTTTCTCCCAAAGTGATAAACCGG…AGGTTGGTTTCACT; site = the 11-nt donor;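 note: IS621 bridge recombinase in Escherichia coli cells against a fixed T5 target plasmid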
property.label: recombinant UMI read abundance (log10)

seq.string: CGTGGACCATGGACCGGTTTTCCCGGTAATCCGTATTTGTT (site CGTGGAGCTAA)
property.label: recombinant UMI read abundance (log10)
quantitative.readout: 0.0186

seq.string: CCCCACACATGGACCGGTTTTCCCGGTAATCCGTATTTGAA (site CCCCACACTTA)
property.label: recombinant UMI read abundance (log10)
quantitative.readout: 0.0109

seq.string: TAAGGAGCATGGACCGGTTTTCCCGGTAATCCGTATTTGGG (site TAAAGAGCTCC)
property.label: recombinant UMI read abundance (log10)
quantitative.readout: 0.628

seq.string: ACGCAATCATGGACCGGTTTTCCCGGTAATCCGTATTTGAT (site ACGCAATCTAT)
property.label: recombinant UMI read abundance (log10)
quantitative.readout: 2.55

seq.string: ATTGGGACATGGACCGGTTTTCCCGGTAATCCGTATTTGGT (site ATTGTGACTAC)
property.label: recombinant UMI read abundance (log10)
quantitative.readout: 0.0209

seq.string: GGTATTACATGGACCGGTTTTCCCGGTAATCCGTATTTGAG (site GGTATTACTCT)
property.label: recombinant UMI read abundance (log10)
quantitative.readout: 0

seq.string: GGCCACCCATGGACCGGTTTTCCCGGTAATCCGTATTTGTA (site GGCCACCCTGA)
property.label: recombinant UMI read abundance (log10)
quantitative.readout: 0

seq.string: ATATGTCCATGGACCGGTTTTCCCGGTAATCCGTATTTGTC (site ATATGTCCTGA)
property.label: recombinant UMI read abundance (log10)
quantitative.readout: 0.623

seq.string: GGCCCCCCATGGACCGGTTTTCCCGGTAATCCGTATTTGTT (site GGCCCCCCTAA)
property.label: recombinant UMI read abundance (log10)
quantitative.readout: 0.0352

seq.string: AGGTTCACATGGACCGGTTTTCCCGGTAATCCGTATTTGTG (site AGGTTCTCTCA)
property.label: recombinant UMI read abundance (log10)
quantitative.readout: 0.00699

seq.string: ATTGAGACATGGACCGGTTTTCCCGGTAATCCGTATTTGGC (site ATTGAGACTAC)
property.label: recombinant UMI read abundance (log10)
quantitative.readout: 0.0133

seq.string: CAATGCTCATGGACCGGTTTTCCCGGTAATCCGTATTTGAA (site CACTGCTCTTT)
property.label: recombinant UMI read abundance (log10)
quantitative.readout: 0.0585

seq.string: GCCACGCCATGGACCGGTTTTCCCGGTAATCCGTATTTGTC (site GCCACGCCTTA)
property.label: recombinant UMI read abundance (log10)
quantitative.readout: 0.0128

seq.string: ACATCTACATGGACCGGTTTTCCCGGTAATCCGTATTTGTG (site GCATCTACTCA)
property.label: recombinant UMI read abundance (log10)
quantitative.readout: 0.305

seq.string: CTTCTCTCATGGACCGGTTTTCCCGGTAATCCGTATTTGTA (site CCTCTCTCTTA)
property.label: recombinant UMI read abundance (log10)
quantitative.readout: 0.823

seq.string: CAAGTATCATGGACCGGTTTTCCCGGTAATCCGTATTTGAG (site CAAGTATCTCT)
property.label: recombinant UMI read abundance (log10)
quantitative.readout: 3.07

seq.string: CGTTAGACATGGACCGGTTTTCCCGGTAATCCGTATTTGAC (site CGTTAGACTTT)
property.label: recombinant UMI read abundance (log10)
quantitative.readout: 0.0068

seq.string: AGCCTTTCATGGACCGGTTTTCCCGGTAATCCGTATTTGTC (site AGCCTTTCTGG)
property.label: recombinant UMI read abundance (log10)
quantitative.readout: 0

seq.string: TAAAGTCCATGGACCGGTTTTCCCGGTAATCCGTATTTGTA (site TAAAGTCCTGA)
property.label: recombinant UMI read abundance (log10)
quantitative.readout: 0

seq.string: TGTAGTACATGGACCGGTTTTCCCGGTAATCCGTATTTGAC (site TGTAGTACTGT)
property.label: recombinant UMI read abundance (log10)
quantitative.readout: 0.509

seq.string: GAGCGCGCATGGACCGGTTTTCCCGGTAATCCGTATTTGCG (site GAGCGCGCTCG)
property.label: recombinant UMI read abundance (log10)
quantitative.readout: 1.56

seq.string: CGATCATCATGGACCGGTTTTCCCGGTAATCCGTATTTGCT (site CGACCAACTAG)
property.label: recombinant UMI read abundance (log10)
quantitative.readout: 0.00386

seq.string: ATTAAGACATGGACCGGTTTTCCCGGTAATCCGTATTTGAA (site ATTAAGACTTT)
property.label: recombinant UMI read abundance (log10)
quantitative.readout: 1.43

seq.string: AATAGTGCATGGACCGGTTTTCCCGGTAATCCGTATTTGGT (site AGTAGTGCTAC)
property.label: recombinant UMI read abundance (log10)
quantitative.readout: 0.602

seq.string: CGTGAGACATGGACCGGTTTTCCCGGTAATCCGTATTTGAG (site CGTCAGACTCT)
property.label: recombinant UMI read abundance (log10)
quantitative.readout: 0.00623

seq.string: TTTGAAGCATGGACCGGTTTTCCCGGTAATCCGTATTTGCG (site TTTGAAGCTCG)
property.label: recombinant UMI read abundance (log10)
quantitative.readout: 1.11

seq.string: GAAGATTCATGGACCGGTTTTCCCGGTAATCCGTATTTGCT (site GAAGATTCTAT)
property.label: recombinant UMI read abundance (log10)
quantitative.readout: 0

seq.string: AATGTAACATGGACCGGTTTTCCCGGTAATCCGTATTTGCG (site AATGTAACTCG)
property.label: recombinant UMI read abundance (log10)
quantitative.readout: 1.48

seq.string: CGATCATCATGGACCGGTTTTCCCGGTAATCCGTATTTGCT (site CGAGCATCTAA)
property.label: recombinant UMI read abundance (log10)
quantitative.readout: 0.0187

seq.string: AATAAGACATGGACCGGTTTTCCCGGTAATCCGTATTTGAA (site AATAAGACTTT)
property.label: recombinant UMI read abundance (log10)
quantitative.readout: 1.86

seq.string: CCCGTCTCATGGACCGGTTTTCCCGGTAATCCGTATTTGGG (site CCCCTCTCTCC)
property.label: recombinant UMI read abundance (log10)
quantitative.readout: 0.0424

seq.string: GACGACGCATGGACCGGTTTTCCCGGTAATCCGTATTTGGA (site GACGACGCTTC)
property.label: recombinant UMI read abundance (log10)
quantitative.readout: 2.48

seq.string: TTGGTATCATGGACCGGTTTTCCCGGTAATCCGTATTTGAC (site TTGGTATCTGT)
property.label: recombinant UMI read abundance (log10)
quantitative.readout: 2.59

seq.string: AGCCTTGCATGGACCGGTTTTCCCGGTAATCCGTATTTGAC (site AGCCTTTCTGT)
property.label: recombinant UMI read abundance (log10)
quantitative.readout: 0

seq.string: TGATAGACATGGACCGGTTTTCCCGGTAATCCGTATTTGCC (site GGATAGACTGG)
property.label: recombinant UMI read abundance (log10)
quantitative.readout: 0

seq.string: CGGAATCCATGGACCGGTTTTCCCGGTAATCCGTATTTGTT (site CGTAATCCTAA)
property.label: recombinant UMI read abundance (log10)
quantitative.readout: 0.0103

---

# measurement.description: recombinant UMI read abundance after kanamycin selection (control-corrected) (log10(CPM+1)); higher = more efficient recombination; extreme values may be limits of the assay; sequences stand for … in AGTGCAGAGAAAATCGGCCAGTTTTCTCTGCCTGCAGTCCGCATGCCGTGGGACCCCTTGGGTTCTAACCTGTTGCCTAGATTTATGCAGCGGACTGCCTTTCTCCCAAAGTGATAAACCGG…AGGTTGGTTTCACT; site = the 11-nt donor
The recorded recombinant UMI read abundance (log10) of each item maps onto one of these classes: lower level (below 0.5), middle level (0.5 to below 0.8), upper level (0.8 or more)

seq.string: TGGTCGGCATGGACCGGTTTTCCCGGTAATCCGTATTTGGC (site TGGGCGGCTGC)
class.name: lower level

seq.string: CGCCCTACATGGACCGGTTTTCCCGGTAATCCGTATTTGAG (site CGCCCTACTCT)
class.name: upper level

seq.string: GAATCGCCATGGACCGGTTTTCCCGGTAATCCGTATTTGCA (site GAATAGCCTTG)
class.name: middle level

seq.string: ATTCATGCATGGACCGGTTTTCCCGGTAATCCGTATTTGGT (site ATTCATGCTAC)
class.name: middle level

seq.string: GCCCGAGCATGGACCGGTTTTCCCGGTAATCCGTATTTGGA (site GCCCGAGCTTC)
class.name: middle level

seq.string: CAAGTCACATGGACCGGTTTTCCCGGTAATCCGTATTTGTG (site CAAGTCACTCA)
class.name: lower level

seq.string: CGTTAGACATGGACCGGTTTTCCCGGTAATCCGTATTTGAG (site CGTTAGACTCT)
class.name: upper level

seq.string: AGGTTCCCATGGACCGGTTTTCCCGGTAATCCGTATTTGGT (site AGGTTCCCTAC)
class.name: lower level
